experiment: Tmax in healthy human at 250 to 800 mg/day, po administered for 21 days measured at day 1; assay type: ADME, organism-based; settings: in vivo
OBSERVED_PROPERTY: Tmax (h)

| CHEMICAL_STRING | MEASUREMENT_UNITS | OBSERVED_VALUE |
| --- | --- | --- |
| O=C(NN1C(=O)[C@@H]2[C@@H]3C=C[C@@H]([C@H]4C[C@@H]34)[C@@H]2C1=O)c1ccc(C(F)(F)F)cc1 | h | 2.88 |

---

experiment: Cmax in healthy human at 400 mg/day, po administered for 21 days measured at day 1; type: ADME, organism-based; set-up: dose 400 mg/day, route oral; details: in vivo

| CHEMICAL_STRING | Cmax |
| --- | --- |
| O=C(NN1C(=O)[C@@H]2[C@@H]3C=C[C@@H]([C@H]4C[C@@H]34)[C@@H]2C1=O)c1ccc(C(F)(F)F)cc1 | 1390 ng/mL |
